Data origin: patent US20240043521A1

assay-target: T1, human S100A4 dimer (Homo sapiens, UniProt P26447 1-101)
T1 construct: In the SPR it was captured on an anti-His surface, so it carried a His tag; also called recombinant human S100A4 dimer
T1 sequence (P26447 whole entry, one chain of several): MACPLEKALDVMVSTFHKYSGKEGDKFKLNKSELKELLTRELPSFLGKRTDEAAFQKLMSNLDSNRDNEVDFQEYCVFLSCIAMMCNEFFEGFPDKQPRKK
assay-info: SPR, Biacore T200, 25 C; S100A4 captured via anti-His, antibody as analyte (0.78-200 nM), 1:1 fit
pKd: −log10 of the molar value.
quantity-measured: pKd

>>> test_value("VH1 VL3_L44Leu (antibody, V domains shown, Humanized antibody; also called VH1:VL3_Leu44; Leu44) VH: QVQLQESGPGLVKPSQTLSLTCTVSGDSFTNDYYWNWIRQHPGKGLEWIGHIGYGGNINYNPSLKNRLSMSRDTSKNQFSLKLSSVTAADTAVYYCTRESFYDGYPFDYWGQGTLVTVSS VL: DIQMTQSPSSLSASVGDRVTITCRASQDIRNYLNWYQQKPGKALKLLLYYTSRLHSGVPSRFSGSGSGTDYTLTISSLQPEDFATYYCQQGNSLPRTFGGGTKVEIK")
8.65
>>> test_value("VH1_H40Phe VL3 (antibody, V domains shown, Humanized antibody; also called VH1_40Phe:VL3; Phe40) VH: QVQLQESGPGLVKPSQTLSLTCTVSGDSFTNDYYWNWIRQFPGKGLEWIGHIGYGGNINYNPSLKNRLSMSRDTSKNQFSLKLSSVTAADTAVYYCTRESFYDGYPFDYWGQGTLVTVSS VL: DIQMTQSPSSLSASVGDRVTITCRASQDIRNYLNWYQQKPGKAPKLLLYYTSRLHSGVPSRFSGSGSGTDYTLTISSLQPEDFATYYCQQGNSLPRTFGGGTKVEIK")
8.58
>>> test_value("VH0 VL0: the VH and VL regions of 6B12 comprised in a humanized IgG4 isotype framework (antibody, V domains shown) VH: DVQLQESGPGLVKPSQSLSLTCSVTGDSFTNDYYWNWIRQFPGSKLEWMGHIGYGGNINYNPSLKNRISITRDTSKNQFFLRLTSVTTEDTATYYCTRESFYDGYPFDYWGQGTLVTVSA VL: DIQMTQTTSSLSASLGDRVTISCRASQDIRNYLNWYQQRPGGTLKLLIYYTSRLHSGVPSRFSGSGSGTDYSLTISNLEQEDIATYFCQQGNSLPRTFGGGTKLEIK")
9.02
